Numbers sourced from patent US10689363B2.

# Assay name: Thermodynamic solubility (24 h, 37° C.) in FaSSIF medium or USP Phosphate buffer
# Type: physicochemical
# Assay setup: FaSSIF medium, 37 °C, pH 6.5, fassif, thermodynamic from solid, FaSSIF pH 6.5, 37° C., 24 h; read-out: Thermodynamic solubility FaSSIF pH 6.5
Measured parameter: solubility thermodynamic at 24 h

Return reported solubility thermodynamic at 24 h; argument: C=CC(=O)N1CCC(CNc2ncnc(N)c2-c2ccc(Oc3ccccc3)cc2)CC1 [form A2]
~33 µg/mL
